Data credit: patent US20120083522A1

# percent inhibition of Factor XI mRNA, relative to untreated control cells per entry
# System: human Factor XI mRNA
# test: Dose-dependent inhibition in HepG2 cells, lipofectin (Example 4)
# Format: cell-based
# condition: 18.75 nM, 16 hours
In the oligonucleotide strings, read from the 5' end, every base follows the letter of its sugar. An asterisk marks phosphorothioate; unmarked linkages are phosphodiester. Other units and linkages are bracketed, terminal groups are in braces. A string of capitals states the bases alone. e = 2'-O-(2-methoxyethyl) (MOE); [5mC] = 5-methylcytosine; d = 2'-deoxy (DNA)
measurement_label: percent inhibition of Factor XI mRNA, relative to untreated control cells (%)

416864 (antisense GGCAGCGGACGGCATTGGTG; 5-10-5 gapmer, wing sugar chemistry not given here, further chemistry not given here) [compound 416864] :: 43
416842 (antisense eT*eG*eA*eG*eA*dT*dT*d[5mC]*dT*dT*dT*dG*dG*dG*d[5mC]*e[5mC]*eA*eT*eT*e[5mC]) [compound 416842] :: 33
416985 (antisense eG*e[5mC]*dA*dA*d[5mC]*d[5mC]*dG*dG*dG*dA*dT*dG*dA*dT*dG*eA*eG*eT*eG*e[5mC]) [compound 416985] :: 30
416972 (antisense eT*eA*dT*dG*d[5mC]*d[5mC]*d[5mC]*dT*dT*d[5mC]*dA*dT*dG*dT*d[5mC]*eT*eA*eG*eG*eT) [compound 416972] :: 40
417000 (antisense eT*eG*d[5mC]*dA*d[5mC]*dA*dG*dT*dT*dT*d[5mC]*dT*dG*dG*d[5mC]*eA*eG*eG*e[5mC]*e[5mC]) [compound 417000] :: 47

====

# Tested on: Factor XI protein
# test: Cynomolgus monkeys: plasma Factor XI protein ELISA (Example 30)
# Type: in vivo
# condition: 25 mg/kg s.c.; plasma ELISA; Day 17
In the oligonucleotide strings, read from the 5' end, every base follows the letter of its sugar. An asterisk marks phosphorothioate; unmarked linkages are phosphodiester. Other units and linkages are bracketed, terminal groups are in braces. A string of capitals states the bases alone. e = 2'-O-(2-methoxyethyl) (MOE); [5mC] = 5-methylcytosine; d = 2'-deoxy (DNA)
measurement_label: Inhibition of Factor XI protein relative to the PBS control

449711 (antisense eA*e[5mC]*dA*dG*dT*dT*dT*d[5mC]*dT*dG*dG*d[5mC]*eA*eG) [compound 449711] :: 3%
445522 (antisense eG*e[5mC]*eA*e[5mC]*eA*dG*dT*dT*dT*d[5mC]*dT*dG*dG*e[5mC]*eA*eG*eG*e[5mC]) [compound 445522] :: 50%
445531 (antisense eG*eG*e[5mC]*eA*eT*dT*dG*dG*dT*dG*d[5mC]*dA*d[5mC]*eA*eG*eT*eT*eT) [compound 445531] :: 22%
449707 (antisense e[5mC]*eA*e[5mC]*eA*dG*dT*dT*dT*d[5mC]*dT*dG*dG*e[5mC]*eA*eG*eG) [compound 449707] :: 19%
416850 (antisense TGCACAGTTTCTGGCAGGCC; 5-10-5 gapmer, wing sugar chemistry not given here, further chemistry not given here) [compound 416850] :: 31%
449708 (antisense eA*e[5mC]*eA*dG*dT*dT*dT*d[5mC]*dT*dG*dG*e[5mC]*eA*eG) [compound 449708] :: 15%
